System: P388;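 also: compound exposure lasted 48 hours before growth was measured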
Assay: cells
Format: functional
Settings: Mus musculus
Active and inactive are the calls of the source. Rule as the data show it: active = GI50 up to about 1.1 µM and inactive = higher.
Outcomes: label 1 = active, label 0 = inactive

{"compound": "COc1cc2c(ccc3c4cc(OC)c(OC)cc4c[n+](C)c23)cc1O [FAGARONINE]", "assayTarget": "P388", "qualitativeLabel": "label 1"}
{"compound": "ClCc1ccc2ccc3ccc(CCl)nc3c2n1", "assayTarget": "P388", "qualitativeLabel": "label 0"}
{"compound": "O=C1C=CC(=O)c2c(Cl)ccc(O)c21", "assayTarget": "P388", "qualitativeLabel": "label 1"}
{"compound": "CC1=C2C3OC(=O)C(C)C3CCC2(C)C=C/C1=N\\c1ccccc1 (centres undefined)", "assayTarget": "P388", "qualitativeLabel": "label 0"}
